- EXPERIMENT_NOTES: clinical
- MEASUREMENT_CONDITIONS: human, plasma, intravenous, Clearance, Group 1 (N = 45), median
RECORDED_ENDPOINT: clearance
Answer format: number, then unit.

For the compound `C/C=C1\NC(=O)[C@H]2CSSCC/C=C/[C@H](CC(=O)N[C@H](C(C)C)C(=O)N2)OC(=O)[C@H](C(C)C)NC1=O` , what clearance is on record?
252 mL/min

---

- EXPERIMENT_NOTES: clinical
- MEASUREMENT_CONDITIONS: human, plasma, intravenous, Vss, volume of distribution at steady-state, All (N = 74), median
RECORDED_ENDPOINT: Vd (L)
Give a bare numeral; the unit L is implied.

For the molecule `C/C=C1\NC(=O)[C@H]2CSSCC/C=C/[C@H](CC(=O)N[C@H](C(C)C)C(=O)N2)OC(=O)[C@H](C(C)C)NC1=O` , what Vd is on record?
93.6
